# target_desc: T1, Human MuSK (R&D Systems, cat. 10189-MK, histidine tag) (human, UniProt O15146 24-495)
# T1 construct: Bought protein; also called human monomeric MuSK-6xhis; not shown: histidine tag (6xhis)
# T1 sequence: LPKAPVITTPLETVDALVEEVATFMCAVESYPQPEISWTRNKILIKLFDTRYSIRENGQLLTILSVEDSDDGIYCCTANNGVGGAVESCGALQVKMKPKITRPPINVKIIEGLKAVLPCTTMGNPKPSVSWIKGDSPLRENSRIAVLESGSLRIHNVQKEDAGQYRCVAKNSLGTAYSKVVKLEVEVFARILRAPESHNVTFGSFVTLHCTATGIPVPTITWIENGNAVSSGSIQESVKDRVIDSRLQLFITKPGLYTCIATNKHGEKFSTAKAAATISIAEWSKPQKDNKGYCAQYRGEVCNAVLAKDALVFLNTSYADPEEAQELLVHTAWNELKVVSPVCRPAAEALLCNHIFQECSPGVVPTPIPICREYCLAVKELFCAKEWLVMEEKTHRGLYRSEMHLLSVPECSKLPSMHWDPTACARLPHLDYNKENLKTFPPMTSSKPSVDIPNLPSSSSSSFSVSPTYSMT
# method_summary: SPR (Biacore), MuSK-coated chip presaturated with 500 nM 3D10a (competitor)
quantity_measured: normalized extra amplitude (%)
Give bare numbers, in %.

| binder | measurement_unit | observed |
| --- | --- | --- |
| 3D9b (antibody, human IgG1, kappa, L234A L235A, V domains shown) VH: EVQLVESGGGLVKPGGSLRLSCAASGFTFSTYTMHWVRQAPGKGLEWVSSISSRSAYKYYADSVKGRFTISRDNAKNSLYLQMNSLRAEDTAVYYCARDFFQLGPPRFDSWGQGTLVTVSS VL: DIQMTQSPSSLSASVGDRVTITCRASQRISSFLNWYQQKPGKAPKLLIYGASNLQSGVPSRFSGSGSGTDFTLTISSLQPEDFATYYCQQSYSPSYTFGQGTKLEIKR | % | 6.4 |

// below: normalized extra amplitude (%) requested for another binder
Looking for the measured normalized extra amplitude (%) of 4D3 (antibody, human IgG1, kappa, L234A L235A, V domains shown) VH: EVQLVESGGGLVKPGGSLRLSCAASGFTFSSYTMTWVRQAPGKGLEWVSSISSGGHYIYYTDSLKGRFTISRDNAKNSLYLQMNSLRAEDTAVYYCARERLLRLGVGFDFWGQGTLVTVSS VL: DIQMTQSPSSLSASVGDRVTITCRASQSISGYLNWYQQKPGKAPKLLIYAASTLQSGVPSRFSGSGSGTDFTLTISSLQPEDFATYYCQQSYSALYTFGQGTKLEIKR , can you help? 0
